These entries and their values trace back to ChEMBL document CHEMBL4400519.

# target-system: Cannabinoid receptor (Mus musculus) (UniProt P47746+P47936)
# Sequence (P47746 whole entry, looked up): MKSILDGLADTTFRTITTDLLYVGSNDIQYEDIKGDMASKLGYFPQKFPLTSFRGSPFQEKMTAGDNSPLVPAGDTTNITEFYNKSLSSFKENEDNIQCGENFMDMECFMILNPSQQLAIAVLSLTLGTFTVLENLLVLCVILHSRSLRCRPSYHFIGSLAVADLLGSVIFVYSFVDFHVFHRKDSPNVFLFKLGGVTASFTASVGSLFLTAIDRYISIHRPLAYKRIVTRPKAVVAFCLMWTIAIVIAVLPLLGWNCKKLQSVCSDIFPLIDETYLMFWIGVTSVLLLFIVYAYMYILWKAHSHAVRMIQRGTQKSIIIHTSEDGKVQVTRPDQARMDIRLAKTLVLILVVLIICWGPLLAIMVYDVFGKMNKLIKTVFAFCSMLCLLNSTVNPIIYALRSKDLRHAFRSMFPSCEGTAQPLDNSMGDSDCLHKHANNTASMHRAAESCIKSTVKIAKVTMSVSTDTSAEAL
# Sequence (P47936 whole entry, looked up): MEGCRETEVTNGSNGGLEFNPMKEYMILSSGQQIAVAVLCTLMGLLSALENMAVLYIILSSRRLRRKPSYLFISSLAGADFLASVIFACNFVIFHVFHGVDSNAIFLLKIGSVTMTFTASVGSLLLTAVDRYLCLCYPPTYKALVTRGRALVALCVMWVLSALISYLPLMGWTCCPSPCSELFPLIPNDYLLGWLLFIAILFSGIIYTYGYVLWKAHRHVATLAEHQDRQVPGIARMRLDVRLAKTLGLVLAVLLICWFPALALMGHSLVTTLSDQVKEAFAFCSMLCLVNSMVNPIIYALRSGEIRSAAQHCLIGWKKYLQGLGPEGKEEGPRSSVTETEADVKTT
# measurement-protocol: Agonist activity at cannabinoid receptor in ICR mouse vas deferens assessed as inhibition of electrically induced contractions at 2.7 x 10^-6 M after 10 mins relative to control
# Format: protein assay
observation-type: inhibition (%)
Report the value in % with no unit label.

O=C(c1cccc(Cl)c1Cl)n1nc(OCCN2CCCCC2)c2ccccc21 | 29.4
O=C(Cc1ccc(Cl)cc1)n1nc(OCCCN2CCCCC2)c2ccccc21 | 7.3
O=C(c1cccc2ccccc12)n1nc(OCCN2CCCCC2)c2ccccc21 | 28.6
O=C(c1c(F)ccc(F)c1F)n1nc(OCCN2CCCCC2)c2ccccc21 | 40.6
O=C(c1ccccc1OCc1ccccc1)n1nc(OCCCN2CCCCC2)c2ccccc21 | 31.4

Look at this compound and give its reported inhibition. O=C(c1ccccc1Cl)n1nc(OCCN2CCCC2)c2ccccc21
15.1

Query: inhibition; subject: O=C(c1cccc(F)c1F)n1nc(OCCN2CCCC2)c2ccccc21
24.1

I'd like to know its inhibition. The compound in question is COc1cc(C(=O)n2nc(OCCN3CCCC3)c3ccccc32)cc(OC)c1OC
26.9

Entry under review: O=C(c1cccc(Cl)c1F)n1nc(OCCCN2CCCCC2)c2ccccc21 . Reported inhibition?
24.9

Field request: inhibition | item: Cc1cc(C)c(C(=O)n2nc(OCCN3CCCCC3)c3ccccc32)c(C)c1
14

Would you mind telling me what inhibition value was observed for COc1ccc(CC(=O)n2nc(OCCCN3CCCCC3)c3ccccc32)cc1 ?
42.5

Looking for the measured inhibition of O=C(c1ccc2ccccc2c1)n1nc(OCCCN2CCCCC2)c2ccccc21 , can you help?
1.2

---

# target-system: Cannabinoid receptor (Mus musculus) (UniProt P47746+P47936)
# measurement-protocol: Agonist activity at cannabinoid receptor in ICR mouse vas deferens assessed as inhibition of electrically induced contractions at 9 x 10^-7 M after 10 mins relative to control
# Type: protein assay
observation-type: inhibition (%)
Field format: number, assumed %, no unit text.

Some solved cases for reference:
COc1ccc(CC(=O)n2nc(OCCN3CCCC3)c3ccccc32)cc1 | 13.7
O=C(c1ccccc1Cl)n1nc(OCCCN2CCCCC2)c2ccccc21 | 8.9
O=C(c1cccc(Cl)c1Cl)n1nc(OCCN2CCCCC2)c2ccccc21 | 15.6
O=C(c1cccc(Cl)c1F)n1nc(OCCCN2CCCCC2)c2ccccc21 | 18.7
COc1ccc(COc2nn(CCN(C(C)C)C(C)C)c3ccccc23)cc1 | 18.6
COc1ccc(CC(=O)n2nc(OCCCN3CCCCC3)c3ccccc32)cc1 | 16.9
O=C(c1cccc2ccccc12)n1nc(OCCCN2CCCCC2)c2ccccc21 | 7.9
O=C(c1cccc(Cl)c1Cl)n1nc(OCCCN2CCCCC2)c2ccccc21 | 14.3

Which inhibition value belongs to Cc1c(C(=O)c2cccc3ccccc23)c2cccc3c2n1[C@H](CN1CCOCC1)CO3 ?
54.5

Need inhibition, item O=C(c1cccc2ccccc12)n1nc(OCCCN2CCCC2)c2ccccc21
3.2

---

pIC50: −log10 of the molar value.
Assay read-out pIC50; system under study: UniProt P22303.
Sequence (P22303 whole entry): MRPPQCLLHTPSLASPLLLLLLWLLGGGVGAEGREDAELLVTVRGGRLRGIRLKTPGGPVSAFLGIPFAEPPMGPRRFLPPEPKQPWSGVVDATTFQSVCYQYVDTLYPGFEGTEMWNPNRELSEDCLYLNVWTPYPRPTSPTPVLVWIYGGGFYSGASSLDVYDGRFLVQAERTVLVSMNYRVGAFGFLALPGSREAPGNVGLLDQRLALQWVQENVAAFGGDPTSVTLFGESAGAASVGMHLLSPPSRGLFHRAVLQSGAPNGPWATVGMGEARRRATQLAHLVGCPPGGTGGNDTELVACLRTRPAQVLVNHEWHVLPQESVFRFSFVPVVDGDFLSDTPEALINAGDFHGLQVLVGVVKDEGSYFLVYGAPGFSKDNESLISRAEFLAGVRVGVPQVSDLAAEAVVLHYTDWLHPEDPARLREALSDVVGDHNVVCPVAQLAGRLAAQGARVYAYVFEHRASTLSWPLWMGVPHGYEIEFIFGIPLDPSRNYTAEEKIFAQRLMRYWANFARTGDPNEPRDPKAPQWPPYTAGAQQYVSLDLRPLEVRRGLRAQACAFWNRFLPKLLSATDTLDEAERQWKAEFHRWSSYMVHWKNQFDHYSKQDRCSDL

# count of solved cases: 5
O=C(c1ccccc1Cl)n1nc(OCCCN2CCCCC2)c2ccccc21 | 5.01
O=C(c1cccc2ccccc12)n1nc(OCCCN2CCCC2)c2ccccc21 | < 5.00
COc1ccc(CC(=O)n2nc(OCCN3CCCC3)c3ccccc32)cc1 | < 5.00
O=C(c1cccc(Cl)c1F)n1nc(OCCCN2CCCCC2)c2ccccc21 | < 5.00
O=C(c1cccc(Cl)c1Cl)n1nc(OCCN2CCCCC2)c2ccccc21 | 4.98

Tell me reported pIC50 for O=C(c1cccc(F)c1F)n1nc(OCCN2CCCC2)c2ccccc21 , tested with UniProt P22303.
4.96

Missing value: pIC50, UniProt P22303, entry O=C(c1cccc2ccccc12)n1nc(OCCN2CCCCC2)c2ccccc21 . Fill in?
< 5.00

Missing value: pIC50, UniProt P22303, entry Cc1cc(C)c(C(=O)n2nc(OCCN3CCCCC3)c3ccccc32)c(C)c1 . Fill in?
4.94

Query the reported pIC50 for UniProt P22303; item: COc1ccc(COc2nn(CCN(C(C)C)C(C)C)c3ccccc23)cc1
< 5.00

Record O=C(c1ccccc1OCc1ccccc1)n1nc(OCCCN2CCCCC2)c2ccccc21 : what is its pIC50 with UniProt P22303?
< 5.00
